This collection of values is drawn from ChEMBL document CHEMBL1201862.

System: A549
Assay Protocol: NCI tumour cell line growth inhibition, 48 h
Active and inactive are the calls of the source. Rule as the data show it: active = GI50 up to about 1.1 µM and inactive = higher.

{"Compound": "CN1C2=C(CC3=C1CC(C)(C)CC3=O)C(=O)CC(C)(C)C2", "Target Of Assay": "A549", "GI50": "> 100 µM (inactive)"}
{"Compound": "CCOC(=O)C1(Cc2ccccc2)C=CN(C(=O)c2ccccc2)C=C1", "Target Of Assay": "A549", "GI50": "42.4 µM (inactive)"}
{"Compound": "CC(C)(C)OC(=O)N1C(c2cccnc2)=CC[C@H]2C3CC=C(c4cccnc4)[C@@]3(C)CC[C@@H]21 (stereo not given in full)", "Target Of Assay": "A549", "GI50": "3.37 µM (inactive)"}
{"Compound": "NC(=O)c1nnc2ccc(F)cc2c1N", "Target Of Assay": "A549", "GI50": "> 100 µM (inactive)"}
{"Compound": "CCCCCCCCCCCCCCCCP(=O)(O)OCC(N)C(=O)O (stereo not given)", "Target Of Assay": "A549", "GI50": "46.2 µM (inactive)"}
{"Compound": "CCCCN(CCCC)C(=O)C(=O)C(C(=O)C(=O)OC)c1nc2ccccc2o1 (stereo not given)", "Target Of Assay": "A549", "GI50": "> 100 µM (inactive)"}
{"Compound": "N[C@H](C(=O)O)[C@@H](Cl)CC(=O)O", "Target Of Assay": "A549", "GI50": "> 100 µM (inactive)"}
{"Compound": "COC(C/C(=C/CO[Si](C(C)C)(C(C)C)C(C)C)C(=O)N(C(=O)OC(C)(C)C)c1ccccc1I)OC", "Target Of Assay": "A549", "GI50": "28.8 µM (inactive)"}
{"Compound": "O=C1CSC(/C=C/c2ccccc2)N1c1ccc(-c2ccc(-n3c(-c4ccccc4)nc4ccccc4c3=O)cc2)cc1 (stereo not given)", "Target Of Assay": "A549", "GI50": "24 µM (inactive)"}
{"Compound": "CC(OC(C)(C)C)[C@H](NC(=O)OCc1ccccc1)C(=O)NC(OCc1ccccc1)[C@H]1COC(C)(C)O1 (stereo not given in full)", "Target Of Assay": "A549", "GI50": "39.3 µM (inactive)"}
{"Compound": "CSC(=S)N(C)c1nc(N(C)C)s[s+]1", "Target Of Assay": "A549", "GI50": "51.5 µM (inactive)"}
{"Compound": "Cc1ccc(NC(=O)/C(=N\\NC(N)=S)C(C#N)c2ccccc2C)cc1C (stereo not given)", "Target Of Assay": "A549", "GI50": "> 100 µM (inactive)"}
{"Compound": "CC(=O)O[C@H]1CC[C@@]2(C)C(=CC[C@H]3[C@@H]4C[C@H](N5CCN(C)CC5)[C@H](OC(C)=O)[C@@]4(C)CC[C@@H]32)C1", "Target Of Assay": "A549", "GI50": "18.5 µM (inactive)"}
{"Compound": "O=C(O)CSc1nnc(/C=C/c2ccccc2)[nH]1", "Target Of Assay": "A549", "GI50": "> 100 µM (inactive)"}
{"Compound": "CNC(=S)N/N=C(/C)CCC/C(C)=N/NC(=S)NC", "Target Of Assay": "A549", "GI50": "5.45 µM (inactive)"}
{"Compound": "CCCCCc1c2nc(c(CCCCC)c3ccc([nH]3)c(CCCCC)c3nc(c(CCCCC)c4ccc1[nH]4)C=C3)C=C2", "Target Of Assay": "A549", "GI50": "> 100 µM (inactive)"}
{"Compound": "CCCCC(=O)NC1(c2cc3ccccc3s2)CCCCC1", "Target Of Assay": "A549", "GI50": "> 100 µM (inactive)"}
{"Compound": "NCCCn1c(Cl)nc2ccccc21", "Target Of Assay": "A549", "GI50": "> 100 µM (inactive)"}
{"Compound": "N#CC(NCCc1ccccc1)c1ccc(C(C#N)NCCc2ccccc2)cc1 (stereo not given)", "Target Of Assay": "A549", "GI50": "> 100 µM (inactive)"}
{"Compound": "CCOC(=O)CCC(NC(=O)c1ccc(OCc2nc3cc(C(F)(F)F)ccc3nc2-c2ccccc2)cc1)C(=O)OCC (stereo not given)", "Target Of Assay": "A549", "GI50": "> 100 µM (inactive)"}

* * *

Parameter GI50: see the listing below.
Tested on: ACHN
Assay Protocol: NCI tumour cell line growth inhibition, 48 h
Activity calls are given as the source filed them. No stated cut-off is given here; in the data, active = GI50 up to about 1.1 µM and inactive = higher.

{"Compound": "CC12CCC3c4cc(Br)c(O)c(Br)c4CCC3C1CCC2O (configuration not stated)", "GI50": "22.5 µM (inactive)"}
{"Compound": "N#Cc1c(N)nc(-c2ccc(Cl)cc2)c2c1-c1ccccc1S(=O)(=O)CC2", "GI50": "> 100 µM (inactive)"}
{"Compound": "Cc1cc2c3ccccc3n3c2c2c1OC1(C)CCC(C2C1)C3(C)C (configuration not stated)", "GI50": "> 25 µM (inactive)"}
{"Compound": "Cc1c(F)c(N)c2c(=O)cc(-c3ccc(NC(=O)CN(C)C)c(F)c3)oc2c1F", "GI50": "> 100 µM (inactive)"}
{"Compound": "Cc1cc2c(cc1Cl)SC(NNC1=NCCN1)=NS2(=O)=O", "GI50": "> 10 µM (inactive)"}
{"Compound": "COC(=O)C(=O)C(C(=O)OC)C(=O)C(=O)Nc1c(Cl)cc([N+](=O)[O-])cc1Cl (configuration not stated)", "GI50": "80.2 µM (inactive)"}
{"Compound": "Cc1cc(C)c(S(=O)(=O)ONC(=O)OC(C)(C)C)c(C)c1", "GI50": "> 100 µM (inactive)"}
{"Compound": "OC1C#CCSCC#C/C=C\\1 (configuration not stated)", "GI50": "> 100 µM (inactive)"}
{"Compound": "C/C(=C1/N=C(c2ccccc2)OC1=O)c1cccs1", "GI50": "> 100 µM (inactive)"}
{"Compound": "COC(=O)c1cc(O)ccc1O [METHYL 2,5-DIHYDROXYBENZOATE]", "GI50": "> 100 µM (inactive)"}
{"Compound": "Nc1nc2c(ncn2C2C=CC(COS(N)(=O)=O)C2)c(=O)[nH]1 (configuration not stated)", "GI50": "> 100 µM (inactive)"}
{"Compound": "O=C1C(Cl)C(c2cccc(O)c2)N1n1cnc2ccccc2c1=O (configuration not stated)", "GI50": "> 100 µM (inactive)"}
{"Compound": "Nc1cc(=O)n(-c2ccccc2)c(=S)n1-c1ccccc1", "GI50": "> 100 µM (inactive)"}
{"Compound": "N=c1oc2ccccc2cc1-c1nc2ccccc2[nH]1", "GI50": "16.9 µM (inactive)"}
{"Compound": "CSc1c(C(=O)Nc2ccc(Cl)cc2)c(N)nn1-c1ccccc1", "GI50": "78.7 µM (inactive)"}
{"Compound": "C(=C1/CCCCC([n+]2ccccc2)=N1)/c1ccccc1", "GI50": "> 100 µM (inactive)"}
{"Compound": "CC(=O)NC1=C(NCCCl)C(=O)c2ccccc2C1=O", "GI50": "42.8 µM (inactive)"}
{"Compound": "CCOP(=O)(OCC)/C(C#N)=C/c1c(C)[nH]c2ccccc12", "GI50": "> 100 µM (inactive)"}
{"Compound": "CC(=O)NC(=O)/N=C1\\NCCC(=O)N1CCc1c[nH]c2ccccc12", "GI50": "> 100 µM (inactive)"}
{"Compound": "COc1ccc(C2c3cc4c(cc3OC(NNC(N)=O)C2C)OCO4)cc1 (configuration not stated)", "GI50": "8.75 µM (inactive)"}
{"Compound": "O=C(Cn1ccc(=O)[nH]c1=O)Nc1ccc(C(=O)O)c(O)c1", "GI50": "> 100 µM (inactive)"}
{"Compound": "O=S(=O)(CCCCl)SCCCCl", "GI50": "55.7 µM (inactive)"}
{"Compound": "Cn1c(N/N=C/c2ccc(Cl)cc2)nc(-c2ccc(Cl)cc2)c(C#N)c1=O", "GI50": "61.5 µM (inactive)"}
{"Compound": "CC(C)c1ccccc1SC1CC(=O)CC(Sc2ccccc2C(C)C)C12O[C@H](c1ccccc1)[C@@H](c1ccccc1)O2 (some centres not stated)", "GI50": "30.3 µM (inactive)"}
{"Compound": "CC(=O)N(CN1C(=O)CCC1C(=O)O)c1ccc(C)cc1 (configuration not stated)", "GI50": "> 100 µM (inactive)"}
{"Compound": "C=CC(=O)N1C/C(=C\\c2ccc(Cl)cc2)C(=O)/C(=C/c2ccc(Cl)cc2)C1", "GI50": "0.286 µM (active)"}
{"Compound": "O=C(Nc1ccc2nc(O)n[n+]([O-])c2c1)C(F)(F)F", "GI50": "> 100 µM (inactive)"}

* * *

System: A498
Assay Protocol: NCI tumour cell line growth inhibition, 48 h
Activity calls are given as the source filed them. No stated cut-off is given here; in the data, active = GI50 up to about 1.1 µM and inactive = higher.

{"Compound": "COc1ccc(/C=C/C(=O)/C=C/c2ccc(OC)cc2)cc1", "GI50": "> 100 µM (inactive)"}
{"Compound": "COc1ccc2[nH]c3c(C)c4c(c(C)c3c2c1)CN(C)CC4", "GI50": "17.9 µM (inactive)"}
{"Compound": "C[Si](C)(C)/C=C/CCC(C=O)(CCCl)c1ccccc1 (stereo not drawn)", "GI50": "64.1 µM (inactive)"}
